Here the recorded IC50 is given for each entry.
target: CYP1A2 (Homo sapiens); construct: 0.1 mg/mL protein human liver microsomes (BD Gentest); tissue BD Gentest; host or cells: human liver microsomes; assay: Cocktail assay for CYPs, phenacetin O-deethylation (CYP1A2), human liver microsomes; format: biochemical; details: 10 μM phenacetin, 0.1 mg/mL human liver microsomes, 10 min at 37° C.; read-out: CYP IC50 (nM) 1A2
Sequence (P05177 whole entry): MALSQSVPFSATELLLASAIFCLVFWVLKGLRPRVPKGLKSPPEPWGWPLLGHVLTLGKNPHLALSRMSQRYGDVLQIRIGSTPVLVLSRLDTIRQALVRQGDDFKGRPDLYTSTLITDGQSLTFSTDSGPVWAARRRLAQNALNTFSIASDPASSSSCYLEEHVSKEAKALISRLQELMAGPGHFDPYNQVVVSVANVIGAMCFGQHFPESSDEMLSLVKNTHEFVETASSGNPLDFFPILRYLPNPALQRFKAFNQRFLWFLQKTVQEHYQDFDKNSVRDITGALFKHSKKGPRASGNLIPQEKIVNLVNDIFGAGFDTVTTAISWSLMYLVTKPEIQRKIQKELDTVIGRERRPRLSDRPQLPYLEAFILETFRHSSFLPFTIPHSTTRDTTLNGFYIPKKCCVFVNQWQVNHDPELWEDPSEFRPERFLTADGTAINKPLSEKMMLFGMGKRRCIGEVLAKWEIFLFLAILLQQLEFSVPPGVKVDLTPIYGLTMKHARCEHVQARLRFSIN

CN1CCN(c2ccc(S(=O)(=O)N3CCc4c(cccc4-c4cncn4CCc4ccc(F)cc4)C3)cn2)CC1	> 10000 nM

Asked: # input compound: CC(=O)Nc1ncc(S(=O)(=O)N2CCCC2c2ccccc2-c2cncn2C2CC2)s1 (centres unmarked) ; wanted: its IC50
Given back: > 10000 nM

Asked: For `CC(=O)Nc1ncc(S(=O)(=O)NCc2ccccc2-c2cncn2CCc2ccc(F)cc2)s1` then?
Given back: > 10000 nM

Asked: For O=C(C1CCOCC1)N1CCCC1c1ccccc1-c1cncn1CCc1ccc(F)cc1 (centres unmarked) then?
Given back: > 10000 nM

Asked: For Cn1cncc1-c1ccccc1C1CCCN1S(=O)(=O)c1cnc(N2CCN3C[C@H](O)C[C@H]3C2)s1 (some centres unmarked) then?
Given back: > 10000 nM

###

molecular target: CYP2C19 (Homo sapiens); construct: 0.1 mg/mL protein human liver microsomes (BD Gentest); tissue BD Gentest; host or cells: human liver microsomes; assay: Cocktail assay for CYPs, mephenytoin 4′-hydroxylation (CYP2C19), human liver microsomes; type: biochemical; settings: 30 μM mephenytoin, 0.1 mg/mL human liver microsomes, 10 min at 37° C.; read-out: CYP IC50 (nM) 2C19
Here the recorded IC50 is given for each entry.

Worked cases, answers included:
CN1CCN(c2ccc(S(=O)(=O)N3CCc4c(cccc4-c4cncn4CCc4ccc(F)cc4)C3)cn2)CC1 [Compound 59]	5610 nM
CC(c1ccccc1-c1cncn1CCc1ccc(F)cc1)N(C)S(=O)(=O)c1cnc(N2CCN(C)CC2)s1 (stereo not drawn) [Compound 4]	6700 nM
O=S(=O)(c1ccc(NCC(O)C2CC2)nc1)N1CCCC1c1ccccc1-c1cncn1CCc1ccc(F)cc1 (single isomer, unassigned) [Compound 34b]	4400 nM

Asked: # input compound: CC(=O)Nc1ncc(S(=O)(=O)NCc2ccccc2-c2cncn2CCc2ccc(F)cc2)s1 [Compound 18] ; wanted: its IC50
Given back: 2930 nM

Asked: For CC(C)OC(=O)N1CCCC1c1cccc(-c2cncn2CCc2ccc(F)cc2)c1 (stereo not drawn) [Compound 56] then?
Given back: 452 nM

Asked: For CC(C)NC(=O)N1CCCC1c1ccccc1-c1cncn1CCc1ccc(F)cc1 (single isomer, unassigned) [Compound 46a] then?
Given back: > 10000 nM

###

Target: CYP2C19 (Homo sapiens, UniProt P33261)
Construct: 0.1 mg/mL protein human liver microsomes (BD Gentest); tissue BD Gentest; host or cells: human liver microsomes
Sequence (P33261 whole entry): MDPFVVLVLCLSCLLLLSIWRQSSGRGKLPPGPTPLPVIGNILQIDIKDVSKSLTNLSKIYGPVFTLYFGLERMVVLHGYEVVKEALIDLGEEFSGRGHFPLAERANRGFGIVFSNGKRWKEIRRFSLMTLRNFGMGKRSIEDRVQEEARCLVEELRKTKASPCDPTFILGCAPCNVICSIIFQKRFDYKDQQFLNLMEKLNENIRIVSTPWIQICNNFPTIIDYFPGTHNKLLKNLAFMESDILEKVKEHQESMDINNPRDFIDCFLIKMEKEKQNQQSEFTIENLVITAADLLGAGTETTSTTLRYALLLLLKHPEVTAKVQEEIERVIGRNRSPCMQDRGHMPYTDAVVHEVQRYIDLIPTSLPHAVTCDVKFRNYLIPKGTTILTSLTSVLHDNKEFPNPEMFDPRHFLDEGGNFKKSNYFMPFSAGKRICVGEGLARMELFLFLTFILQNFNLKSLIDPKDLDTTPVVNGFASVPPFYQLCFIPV
Experiment: Cocktail assay for CYPs, mephenytoin 4′-hydroxylation (CYP2C19), human liver microsomes
Assay type: biochemical
Details: 30 μM mephenytoin, 0.1 mg/mL human liver microsomes, 10 min at 37° C.; read-out: CYP IC50 (nM) 2C19
Description: Determination of IC50 in a Cocktail Assay for CYPs 1A2, 2C9, 2C19, 2D6 and 3A4: This assay was performed in a standard 96-well plate design. […] The production of the metabolite of each probe substrate was determined after incubation for 10 min at 37° C. Quantitation of the metabolite peak area ratio against an internal standard (tolbutamide) was determined by LC/MS/MS analysis following acetonitrile treatment of the incubations. […]
Here the recorded IC50 is given for each entry.

Worked cases, answers included:
CC(=O)Nc1ncc(S(=O)(=O)N2CCCC2c2ccccc2-c2cncn2CCc2ccc(F)cc2)s1 (stereo not shown)	4190 nM
CC(C)NC(=O)N1CCCC1c1ccccc1-c1cncn1CCc1ccc(F)cc1 (single isomer, unassigned) [Compound 46b]	> 10000 nM
O=C(c1cccnc1)N1CCCC1c1ccccc1-c1cncn1CCc1ccc(F)cc1 (single isomer, unassigned) [Compound 42a]	> 10000 nM

Could you now look at the following compound, please?
Asked: # input compound: COCCn1cncc1-c1ccccc1C1CCCN1S(=O)(=O)c1cnc(NC(C)=O)s1 (stereo not shown) ; wanted: its IC50
Given back: > 10000 nM
